tested on: corn (Zea mays); assay: Test A postemergence; format: in vivo; conditions: Zea mays, post-emergence, 240 h, 125 g ai/ha, postemergence, visual injury rating after approximately 10 d; read-out: Corn plant response rating (0 to 100 scale, 0 no effect, 100 complete control)
Outcome label depends on plant injury at 125 g/ha relative to 30%: at/above gives MET, below gives NOT MET.

compound | cat
Cc1cc(C)cc([C@H]2CN(C)C(=O)[C@@H]2C(=O)Nc2ccccc2F)c1 [Compound 910] | MET

Assess whether reported plant injury at 125 g/ha for CN1C[C@H](c2cccc(COC(F)F)c2)[C@@H](C(=O)Nc2ccccc2S(C)(=O)=O)C1=O [Compound 877] sits at 30% or higher. NOT MET

Assess whether reported plant injury at 125 g/ha for COc1c(F)ccc([C@H]2CNC(=O)[C@@H]2C(=O)Nc2cccc(F)c2F)c1Cl [Compound 882] sits at 30% or higher. MET

Assess whether reported plant injury at 125 g/ha for CN1C[C@H](c2cccc(C3CC3)c2)[C@@H](C(=O)Nc2ccccc2F)C1=O [Compound 815] sits at 30% or higher. MET

----------
test system: Galium (catchweed bedstraw, Galium aparine); test: Test A postemergence; type: in vivo; settings: Galium, post-emergence, 240 h, 125 g ai/ha, Postemergence; visual injury after approximately 10 d; 0 to 100 scale where 0 is no effect and 100 is complete control; read-out: Plant response rating, Galium
measurement type: pest or weed control at 125 g/ha (%)
I only need the number, in %, no unit after it.

Specify reported pest or weed control at 125 g/ha for the compound shown: COc1ccc(CN2CC[C@H](c3ccc(F)cc3)[C@@H](C(=O)Nc3cccc(F)c3F)C2=O)cc1 [Compound 919] 0

Specify reported pest or weed control at 125 g/ha for the compound shown: CN1C[C@H](c2cc(F)cc(Cl)c2)[C@@H](C(=O)Nc2cccc(F)c2F)C1=O [Compound 974] 50

Specify reported pest or weed control at 125 g/ha for the compound shown: CC(=O)Oc1ccc(NC(=O)[C@H]2C(=O)N(C)C[C@@H]2c2cc(F)cc(F)c2)c(F)c1 [Compound 996] 0

----------
tested on: giant foxtail (Setaria faberii); test: Test A postemergence; format: in vivo; conditions: 500 g ai/ha, postemergence; visual injury, 0 to 100 scale (0 no effect, 100 complete control), approx. 10 d
Measured Plant response rating, Foxtail, Giant, listed per entry.

compound | Plant response rating, Foxtail, Giant
CN1CC(c2cc(F)cc(F)c2)C(C(=O)Nc2ccccc2F)C1=O (centres unmarked) | 90

Specify reported Plant response rating, Foxtail, Giant for the compound shown: O=C1NCC(c2cccc(Br)c2)C1C(=O)Nc1ccc(F)cc1F (racemic) 90

Specify reported Plant response rating, Foxtail, Giant for the compound shown: CCc1cc(C2CNC(=O)C2C(=O)Nc2cccc(F)c2F)cs1 (racemic) 60

Specify reported Plant response rating, Foxtail, Giant for the compound shown: O=C1NCC(c2cccc(OC(F)(F)C(F)F)c2)C1C(=O)Nc1ccc(F)c(F)c1F (racemic) 80

Specify reported Plant response rating, Foxtail, Giant for the compound shown: Cc1cc(C2CNC(=O)C2C(=O)Nc2cccc(F)c2F)cs1 (racemic) 60

Specify reported Plant response rating, Foxtail, Giant for the compound shown: C=CCOc1cccc(C2CNC(=O)C2(CC=C)C(=O)Nc2cccc(F)c2F)c1 (centres unmarked) 0

Specify reported Plant response rating, Foxtail, Giant for the compound shown: COC(=O)c1ccccc1NC(=O)C1C(=O)NCC1c1cccc(C(F)(F)F)c1 (racemic) 0

Specify reported Plant response rating, Foxtail, Giant for the compound shown: O=C1NCC(c2ccc(I)cc2)C1C(=O)Nc1cccc(F)c1F (racemic) 90

----------
tested on: barnyardgrass (Echinochloa crus-galli); assay: Test A preemergence; type: in vivo; conditions: Echinochloa crus-galli, pre-emergence, 240 h, 500 g ai/ha, Preemergence, visual injury vs untreated controls after approximately 10 d; read-out: Barnyardgrass plant response rating (0 to 100 scale where 0 is no effect and 100 is complete control)
Excerpt: […]
measurement type: pest or weed control at 500 g/ha (%)
I only need the number, in %, no unit after it.

structure as smiles | scale unit | pest or weed control at 500 g/ha
CC(C)c1cccc([C@H]2CN(C)C(=O)[C@@H]2C(=O)Nc2ccccc2S(C)(=O)=O)c1 | % | 100
COc1cc([C@H]2CN(C)C(=O)[C@@H]2C(=O)Nc2ccccc2SC)cc(C(F)(F)F)c1 | % | 90
O=C1NC[C@H](c2ccc3c(c2)CCO3)[C@H]1C(=O)Nc1ccccc1F | % | 90
COc1c(F)ccc([C@H]2CNC(=O)[C@@H]2C(=O)Nc2ccccc2F)c1Cl | % | 90

Note: attention shifts to another entry.
Specify reported pest or weed control at 500 g/ha for the compound shown: CN1C[C@H](c2cc(F)cc(F)c2)[C@@H](C(=O)Nc2ccccc2[S@@+](C)[O-])C1=O 100

----------
system: Kochia (Kochia scoparia); test: Test A preemergence; format: in vivo; conditions: 125 g ai/ha, Preemergence; visual injury after approximately 10 d; 0 to 100 scale where 0 is no effect and 100 is complete control
Measured Plant response rating, Kochia, listed per entry.

Consider the following illustrative entries.
compound | measurement type | measured result
C#CCN1CC(c2cccc(C(F)(F)F)c2)C(C(=O)Nc2ccccc2F)C1=O (centres unmarked) [Compound 607] | Plant response rating, Kochia | 0
O=C1NCC(c2cccc(F)c2F)C1C(=O)Nc1ccccc1F (centres unmarked) [Compound 494] | Plant response rating, Kochia | 0
O=C1NCC(c2ccc(F)cc2F)C1C(=O)Nc1ccccc1F (centres unmarked) [Compound 620] | Plant response rating, Kochia | 0
O=C1NCC(c2ccc3c(c2)OC(F)(F)O3)C1C(=O)Nc1cccc(F)c1F (centres unmarked) [Compound 635] | Plant response rating, Kochia | 60
CN1CC(c2cccc(OC(F)(F)C(F)F)c2)C(C(=O)Nc2ccccc2F)C1=O (centres unmarked) [Compound 539] | Plant response rating, Kochia | 60

Specify reported Plant response rating, Kochia for the compound shown: Cc1cc(C2CNC(=O)C2C(=O)Nc2cccc(F)c2F)cs1 (racemic) [Compound 656] 60

Specify reported Plant response rating, Kochia for the compound shown: O=C(Nc1ccccc1F)C1C(=O)N(CC=CCl)CC1c1cccc(C(F)(F)F)c1 (centres unmarked) [Compound 483] 0

Specify reported Plant response rating, Kochia for the compound shown: O=C1NCC(c2ccc(Oc3ccccc3)cc2)C1C(=O)Nc1ccccc1F (racemic) [Compound 534] 0

----------
test system: giant foxtail (Setaria faberii); assay: Test A preemergence; type: in vivo; settings: Setaria faberi, pre-emergence, 240 h, 500 g ai/ha, preemergence; visual injury rating about 10 d after treatment, 0 to 100 scale (0 no effect, 100 complete control); read-out: Foxtail, Giant plant response rating
measurement type: pest or weed control at 500 g/ha (%)
I only need the number, in %, no unit after it.

compound | pest or weed control at 500 g/ha / %
CC(=O)Oc1ccc(NC(=O)[C@H]2C(=O)N(C)C[C@@H]2c2cc(F)cc(F)c2)c(F)c1 | 0
COc1ccc([C@H]2CN(C)C(=O)[C@@H]2C(=O)Nc2cccc(F)c2F)cc1C(F)(F)F | 100
CCOc1cccc([C@H]2CN(C)C(=O)[C@@H]2C(=O)Nc2ccccc2F)c1 | 100
CN1CC[C@H](c2ccc(OC(F)(F)F)cc2)[C@@H](C(=O)Nc2cccc(Cl)c2F)C1=O | 80

Specify reported pest or weed control at 500 g/ha for the compound shown: Cc1ccc([C@H]2CNC(=O)[C@@H]2C(=O)Nc2ccccc2S(C)(=O)=O)cc1C 80

Specify reported pest or weed control at 500 g/ha for the compound shown: Cc1ccc([C@H]2CNC(=O)[C@]2(Br)C(=O)Nc2cccc(F)c2F)cc1F (racemic) 100

Specify reported pest or weed control at 500 g/ha for the compound shown: CSc1ccccc1NC(=O)[C@H]1C(=O)N(C)C[C@@H]1c1ccc(C)c(Cl)c1 90

Specify reported pest or weed control at 500 g/ha for the compound shown: Cc1cc([C@H]2CN(C)C(=O)[C@@H]2C(=O)Nc2ccc(F)c(F)c2F)ccc1Cl 90

Specify reported pest or weed control at 500 g/ha for the compound shown: CCOc1cccc([C@H]2CNC(=O)[C@@H]2C(=O)Nc2ccc(F)cc2F)c1 70

Specify reported pest or weed control at 500 g/ha for the compound shown: CN1C[C@H](c2ccc(C(F)(F)F)cc2)[C@@H](C(=O)Nc2cccc(F)c2Br)C1=O 90

----------
system: giant foxtail (Setaria faberii); assay: Test A preemergence; format: in vivo; details: Setaria faberi, pre-emergence, 240 h, 500 g ai/ha, Preemergence, visual injury vs untreated controls after approximately 10 d; read-out: Foxtail, Giant plant response rating (0 to 100 scale where 0 is no effect and 100 is complete control)
measurement type: pest or weed control at 500 g/ha
Respond with a number, then the unit of measure.

compound | target of assay | pest or weed control at 500 g/ha
O=C1NCC(c2cccc(I)c2)C1C(=O)Nc1ccccc1F (stereo not drawn) | giant foxtail (Setaria faberii) | 90%
COc1cc(C(F)(F)F)ccc1[C@H]1CN(C)C(=O)[C@@H]1C(=O)Nc1ccccc1F | giant foxtail (Setaria faberii) | 90%
Cc1cc(C)cc([C@H]2CNC(=O)[C@@H]2C(=O)Nc2ccccc2C(F)(F)F)c1 | giant foxtail (Setaria faberii) | 90%
CN1CC(c2cccc(C=O)c2)C(C(=O)Nc2ccccc2F)C1=O (stereo not drawn) | giant foxtail (Setaria faberii) | 30%
CN1C[C@H](c2cc(F)cc(F)c2)[C@@H](C(=O)Nc2ccccc2[S@@+](C)[O-])C1=O | giant foxtail (Setaria faberii) | 90%
COc1c(F)ccc([C@H]2CN(C)C(=O)[C@@H]2C(=O)Nc2cccc(F)c2F)c1Cl | giant foxtail (Setaria faberii) | 90%
Cc1c(F)ccc([C@H]2CN(C)C(=O)[C@@H]2C(=O)Nc2ccccc2S(C)(=O)=O)c1F | giant foxtail (Setaria faberii) | 100%
CN1C[C@H](c2ccc(OC(F)F)cc2)[C@@H](C(=O)Nc2ccccc2S(C)(=O)=O)C1=O | giant foxtail (Setaria faberii) | 100%

Note: attention shifts to another entry.
Specify reported pest or weed control at 500 g/ha for the compound shown: COc1c(F)ccc([C@H]2CNC(=O)[C@@H]2C(=O)Nc2cccc(F)c2F)c1Cl 90%
